Target: Receptor-interacting serine/threonine-protein kinase 1 (Homo sapiens, UniProt Q13546)
Sequence (Q13546 whole entry): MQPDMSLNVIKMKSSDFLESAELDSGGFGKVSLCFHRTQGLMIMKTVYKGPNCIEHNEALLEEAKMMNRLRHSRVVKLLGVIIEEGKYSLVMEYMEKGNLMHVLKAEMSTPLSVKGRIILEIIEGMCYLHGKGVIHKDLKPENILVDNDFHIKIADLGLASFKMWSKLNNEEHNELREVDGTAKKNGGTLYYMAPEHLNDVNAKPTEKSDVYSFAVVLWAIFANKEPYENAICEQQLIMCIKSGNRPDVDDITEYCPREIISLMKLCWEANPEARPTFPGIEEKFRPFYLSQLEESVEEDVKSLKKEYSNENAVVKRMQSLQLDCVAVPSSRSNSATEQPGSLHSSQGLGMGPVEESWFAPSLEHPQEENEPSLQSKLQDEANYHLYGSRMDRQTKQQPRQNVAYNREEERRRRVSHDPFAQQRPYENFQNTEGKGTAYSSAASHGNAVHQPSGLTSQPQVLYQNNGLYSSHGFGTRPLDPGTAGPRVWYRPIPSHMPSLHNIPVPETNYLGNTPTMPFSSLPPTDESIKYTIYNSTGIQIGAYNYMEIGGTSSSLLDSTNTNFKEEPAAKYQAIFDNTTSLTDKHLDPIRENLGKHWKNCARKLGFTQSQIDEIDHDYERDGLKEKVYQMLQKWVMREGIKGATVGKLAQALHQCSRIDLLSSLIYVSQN
pKd: −log10 of the molar value.

Smiles Entry	pKd
CC1(C)C[C@@H]1C(=O)Nc1nc2ccc(Oc3ccc(F)c(NC(=O)Cc4cccc(C(F)(F)F)c4)c3)cc2s1	6.37

###

pKd values for the compounds below.
molecular target: Receptor-interacting serine/threonine-protein kinase 3 (Homo sapiens, UniProt Q9Y572); assay: Inhibition of human wild type RIPK3 (M1 to Q307) expressed in bacterial system by kinomescan assay
Sequence (Q9Y572 whole entry): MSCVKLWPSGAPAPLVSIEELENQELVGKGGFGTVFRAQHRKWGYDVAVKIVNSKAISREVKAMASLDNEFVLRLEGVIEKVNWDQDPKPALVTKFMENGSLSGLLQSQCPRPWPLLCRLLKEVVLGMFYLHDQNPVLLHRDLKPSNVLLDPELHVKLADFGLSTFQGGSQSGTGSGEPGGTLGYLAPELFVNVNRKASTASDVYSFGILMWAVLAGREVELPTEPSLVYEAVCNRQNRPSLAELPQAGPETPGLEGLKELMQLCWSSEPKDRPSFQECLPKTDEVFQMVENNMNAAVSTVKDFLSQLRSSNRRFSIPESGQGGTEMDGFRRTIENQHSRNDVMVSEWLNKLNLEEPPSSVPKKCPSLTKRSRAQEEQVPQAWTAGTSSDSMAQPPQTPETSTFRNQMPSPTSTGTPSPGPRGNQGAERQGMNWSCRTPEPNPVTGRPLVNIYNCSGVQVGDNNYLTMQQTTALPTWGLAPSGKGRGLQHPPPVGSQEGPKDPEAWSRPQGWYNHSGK
pKd: −log10 of the molar value.

Compound	Tgt	pKd
CC1(C)C[C@H]1C(=O)Nc1nc2ccc(Oc3ccc(F)c(NC(=O)Cc4cccc(C(F)(F)F)c4)c3)cc2s1	Receptor-interacting serine/threonine-protein kinase 3 (Homo sapiens, UniProt Q9Y572)	6.19
CC1(C)C[C@@H]1C(=O)Nc1nc2ccc(Oc3ccc(F)c(NC(=O)Cc4cccc(C(F)(F)F)c4)c3)cc2s1	Receptor-interacting serine/threonine-protein kinase 3 (Homo sapiens, UniProt Q9Y572)	6.84
CC1(C)CC1C(=O)Nc1nc2ccc(Oc3ccc(F)c(NC(=O)Cc4cccc(C(F)(F)F)c4)c3)cc2s1 (racemic)	Receptor-interacting serine/threonine-protein kinase 3 (Homo sapiens, UniProt Q9Y572)	6.57

Reference for the values: ChEMBL document CHEMBL4819126
